molecular target: OCT1 (Homo sapiens, UniProt O15245); experiment: Inhibition of net [14C]-metformin uptake in MDCK-OCT1 cells; conditions: 50 μM metformin, 5 min, pH 7.4, efavirenz 0.01–50 μM, read-out: IC50, inhibition of net OCT1-mediated [14C]-metformin uptake
Sequence (O15245 whole entry): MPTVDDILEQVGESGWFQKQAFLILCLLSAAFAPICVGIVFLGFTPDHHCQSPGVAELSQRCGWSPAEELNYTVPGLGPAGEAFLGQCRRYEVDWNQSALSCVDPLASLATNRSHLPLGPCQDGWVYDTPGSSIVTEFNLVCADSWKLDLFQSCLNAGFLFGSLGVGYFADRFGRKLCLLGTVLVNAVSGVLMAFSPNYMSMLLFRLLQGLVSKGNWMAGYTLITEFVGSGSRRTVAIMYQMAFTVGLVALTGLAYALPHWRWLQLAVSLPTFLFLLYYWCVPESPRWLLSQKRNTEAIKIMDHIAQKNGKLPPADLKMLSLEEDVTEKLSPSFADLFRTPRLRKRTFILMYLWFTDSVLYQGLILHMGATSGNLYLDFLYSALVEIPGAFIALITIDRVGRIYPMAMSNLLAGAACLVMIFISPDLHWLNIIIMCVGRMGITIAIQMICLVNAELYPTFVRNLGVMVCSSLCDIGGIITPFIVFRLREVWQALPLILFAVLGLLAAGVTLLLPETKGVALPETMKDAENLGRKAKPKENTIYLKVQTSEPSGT
measured quantity: IC50 (nM)
Answer format: numeric, nM implied, no suffix.

Consider O=C1Nc2ccc(Cl)cc2[C@@](C#CC2CC2)(C(F)(F)F)O1 [efavirenz, Efavirenz] . Its measured IC50 is 2300

* * *

target: MRP2 (Homo sapiens); assay: Calcein efflux assay in MDCK-MRP2 cells; conditions: MRP2 relative IC50, calcein efflux, maximal inhibition by efavirenz alone = 100%
Sequence (Q92887 whole entry): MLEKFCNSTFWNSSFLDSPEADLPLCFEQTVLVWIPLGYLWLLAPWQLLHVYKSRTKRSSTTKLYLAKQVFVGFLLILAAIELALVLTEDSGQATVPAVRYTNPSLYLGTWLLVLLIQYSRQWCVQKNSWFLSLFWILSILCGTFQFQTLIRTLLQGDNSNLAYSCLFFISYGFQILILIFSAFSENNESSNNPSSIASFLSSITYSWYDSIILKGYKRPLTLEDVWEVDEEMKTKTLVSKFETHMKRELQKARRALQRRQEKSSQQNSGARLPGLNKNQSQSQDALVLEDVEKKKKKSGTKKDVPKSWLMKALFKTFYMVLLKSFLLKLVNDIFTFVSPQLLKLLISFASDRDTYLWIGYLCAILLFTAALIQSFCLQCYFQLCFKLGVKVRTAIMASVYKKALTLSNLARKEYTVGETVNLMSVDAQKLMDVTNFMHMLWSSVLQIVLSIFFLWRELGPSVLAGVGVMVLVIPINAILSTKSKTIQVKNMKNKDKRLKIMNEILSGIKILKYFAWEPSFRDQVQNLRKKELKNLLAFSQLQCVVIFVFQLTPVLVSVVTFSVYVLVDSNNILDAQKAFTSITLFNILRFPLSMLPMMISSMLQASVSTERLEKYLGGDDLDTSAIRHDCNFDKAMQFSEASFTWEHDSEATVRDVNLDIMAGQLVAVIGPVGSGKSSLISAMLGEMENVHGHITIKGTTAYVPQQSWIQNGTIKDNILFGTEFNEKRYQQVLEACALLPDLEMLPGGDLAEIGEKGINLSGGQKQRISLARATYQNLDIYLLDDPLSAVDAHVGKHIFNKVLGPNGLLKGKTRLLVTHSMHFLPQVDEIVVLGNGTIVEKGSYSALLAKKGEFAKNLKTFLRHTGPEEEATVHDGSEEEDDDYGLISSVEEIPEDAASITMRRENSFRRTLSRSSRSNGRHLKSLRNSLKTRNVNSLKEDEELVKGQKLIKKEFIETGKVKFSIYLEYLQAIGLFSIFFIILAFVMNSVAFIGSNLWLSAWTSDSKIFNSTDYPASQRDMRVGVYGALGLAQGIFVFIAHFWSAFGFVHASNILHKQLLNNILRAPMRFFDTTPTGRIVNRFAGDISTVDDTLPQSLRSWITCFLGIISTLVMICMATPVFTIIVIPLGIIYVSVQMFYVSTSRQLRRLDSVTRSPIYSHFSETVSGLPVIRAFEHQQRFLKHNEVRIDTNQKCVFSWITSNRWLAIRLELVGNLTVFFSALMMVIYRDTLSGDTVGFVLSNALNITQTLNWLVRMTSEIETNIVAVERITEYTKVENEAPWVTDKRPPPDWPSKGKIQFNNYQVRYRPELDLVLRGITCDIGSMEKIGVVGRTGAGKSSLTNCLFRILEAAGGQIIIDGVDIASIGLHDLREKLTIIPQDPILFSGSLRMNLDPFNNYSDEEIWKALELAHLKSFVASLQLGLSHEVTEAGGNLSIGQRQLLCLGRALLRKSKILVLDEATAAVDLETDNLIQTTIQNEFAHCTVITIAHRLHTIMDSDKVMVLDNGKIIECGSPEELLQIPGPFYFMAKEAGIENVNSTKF
measured quantity: IC50 (nM)
All answers are understood in nM, so give the number only.

Tested system MRP2 (Homo sapiens); IC50 recorded for O=C1Nc2ccc(Cl)cc2[C@@](C#CC2CC2)(C(F)(F)F)O1 was 1600
